The reported numbers originate from patent US20260193326A1.

- testedOn: T1, AAV8
- T1 construct: also called adeno-associated virus serotype 8
- method: SPR, AAV on CM5 chip;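 further: surface plasmon resonance with AAV amine-coupled to the chip as ligand, nanobodies injected as analyte over a concentration series, rate constants and affinity fitted from binding curves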
Met if Kd is below 100 nM. Not met if not; exact matches included in Not met.

Query: Given A4-036 (VHH) VHH: VQLQESGGGLAQAGGSLRLSCAASGRGFSINTMGWYRQAPGKQRELVAAVTRGGTTNYADSVKGRFTISRDNAKNTVYLQMNSLRPEDTAVYYCHVDEVRQSSWTTSNLWGQGTQVTVSS , is recorded Kd strictly lower than 100 nM?
Result: Not met

Query: Given A4-021 (VHH) VHH: VQLQESGGGLVQAGGSLRLSCAASGSTFSINTMGWYRQAPGKQRELVATITRGGNTNYADSVKGRFTISRDNAKNTVYLQMNSLRPEDTAVYYCHVDEVRQSSWTTSNIWGQGTQVTVSS , is recorded Kd strictly lower than 100 nM?
Result: Met

Query: Given A4-001 (VHH) VHH: VQLQESGGGLVQPGGSLRLSCAASGRSFSINTMGWYRQAPGKQRELVATVTRGGSTNYAGSVKGRFTISRDNAKNTVYLQMNSLRPEDTAVYYCHIDEVRQSSWTTSNIWGQGTQVTVSS , is recorded Kd strictly lower than 100 nM?
Result: Met

Query: Given A4-011 (VHH) VHH: VQLQESGGGLVQAGGSLRLSCAASGSIFSINSMGWYRQAPGKQRELVATVTRGGNTNYAGSVKGRFTISRDNAKNTVYLQMNSLRPEDTAVYYCHVDEVRESSWTTSNLWGQGTQVTVSS , is recorded Kd strictly lower than 100 nM?
Result: Met

Query: Given A4-032 (VHH) VHH: VQLQESGGGLVQPGGSLRLSCVASGSSFSINTMGWYRQAPGKQRELVATVTRDGSTNYANSVKGRFTISRDNAKNTVYLQMNSLRPEDTAVYYCHVDEVRQSSWTTSNLWGQGTQVTVSS , is recorded Kd strictly lower than 100 nM?
Result: Met

Query: Given A4-028 (VHH) VHH: VQLQESGGGLVQPGGSLRLSCAASGSNFSINTMGWYRQAPGKQRELVATVTRGGDTNYADSVKGRFTISRDNAKNTVYLQMNSLRPEDTAVYYCHVDEIRESSWTTSNLWGQGTQVTVSS , is recorded Kd strictly lower than 100 nM?
Result: Met

Query: Given A4-044 (VHH) VHH: VQLQESGGGLVQPGGSLRLSCAASGSSFSINTMGWYRQAPGKQRELVATVTRGGVTNYADSVKGRFTISRDNAKNTVYLQMNSLRPEDTAVYYCHVDEVRQSSWTTSNLWGQGTQVTVSS , is recorded Kd strictly lower than 100 nM?
Result: Met

Query: Given A4-027 (VHH) VHH: VQLQESGGGLVQPGGSLRLSCAASGSNFSINTMGWYRQAPGKQRELVAALTRGGSTNYADSVKGRFTISRDNAKNTVYLQMNSLRPEDTAVYYCHVDEVRESSWTTSNLWGQGTQVTVSS , is recorded Kd strictly lower than 100 nM?
Result: Not met

Query: Given A4-039 (VHH) VHH: VQLQESGGGLVQPGGSLRLSCAASGSGFSINTMGWYRQAPGKWRELVATVTRGGSTNYAGSVKGRFTISRDNAKNTVYLQMNSLRPEDTAVYYCHIDEVRQSSWTTSNLWGQGTQVTVSS , is recorded Kd strictly lower than 100 nM?
Result: Not met

Query: Given A4-031 (VHH) VHH: VQLQESGGGLVQPGGSLRLSCAASGSGFSINTMGWYRQAPGKQRELVATVTSAGSTNYAGSVKGRFTISRDNAKNTVYLQMNSLRPEDTAVYYCHVDEIRQSSWTTSNLWGQGTQVTVSS , is recorded Kd strictly lower than 100 nM?
Result: Not met

Query: Given A4-024 (VHH) VHH: VQLQESGGGLVQPGGSLRLSCAASGSNFRINTMGWYRQAPGKQRELVATVTRGGSTNYADSVKGRFTISRDNPKNTVYLQMNSLRPEDTAVYYCHVDEVRESSWTTSNLWGQGTQVTVSS , is recorded Kd strictly lower than 100 nM?
Result: Not met

Query: Given A4-020 (VHH) VHH: VQLQESGGGLVQAGGSLRLSCAASGSTFSINTMGWYRQAPGKQRELVATITRGGNTNYADSVKGRFTISRDNAKNTVYLQMNSLRPEDTAVYYCHVDEVRQSSWTTSNLWGQGTQVTVSS , is recorded Kd strictly lower than 100 nM?
Result: Met

Query: Given A4-017 (VHH) VHH: VQLQESGGGLVQPGGSLRLSCAASGSIFSINLMGWYRQAPGKQRELVATITRGGNTNYAGSVKGRFTISRDNAKNTVYLQMNSLRPEDTAVYYCHVDEVRQSSWTTSNLWGQGTQVTVSS , is recorded Kd strictly lower than 100 nM?
Result: Not met

Query: Given A4-002 (VHH) VHH: VQLQESGGGLVQPGGSLRLSCAASGRSFSINTMGWYRQAPGKQRELVAAVTRGGSTNYAGSVKGRFTISRDNAKNTVYLQMNSLRPEDTAVYYCHIDEVRQSSWTTSNIWGQGTQVTVSS , is recorded Kd strictly lower than 100 nM?
Result: Met

Query: Given A4-025 (VHH) VHH: VQLQESGGGLVQPGGSLRLSCAASGSNFRINTMGWYRQAPGKQRELVATVTRGGSTNYADSVKGRFTISRDNPKDTVYLQMNSLRPEDTAVYYCHVDEVRESSWTTSNLWGQGTQVTVSS , is recorded Kd strictly lower than 100 nM?
Result: Met
